Attribution: PubChem BioAssay AID1996

- DETAILS: buffer; pH 7.4; 200.0 µM
MEASURED ENDPOINT: solubility kinetic (µg/mL)
One number for each entry, in µg/mL.

In the examples that follow, each entry is paired with its recorded solubility kinetic.
Cc1ccccc1Nc1nc(-c2cccnc2)cs1 : 11.2
CCCCN(CC)S(=O)(=O)c1ccc2c(c1)n(C)c(=O)c(=O)n2C : 2.8
O=C(NC1CCCCC1)Oc1cc2oc(=O)sc2cc1Cl : 10.1
CCc1ccc(N2C(=O)C(Cl)=C(N3CCCCCC3)C2=O)cc1 : 1.7
Cn1ccsc1=NC(=O)c1ccc(OC(F)(F)F)cc1 : 9.3
O=C(O)/C=C/C(=O)NCCCc1ccccc1 : 19.8

# batch: return solubility kinetic for each of the 7 compounds below
1. Cc1ccc(C(=O)NCCCNC(=O)COc2ccc(Cl)cc2)cn1
2. c1nc2ccc(Cc3ccc4nc[nH]c4c3)cc2[nH]1
3. Cc1cccc(OCC(=O)Nc2ccc3c(c2)C(=O)NC3=O)c1
4. CCOc1cccc(NC(=O)/C(C#N)=C/c2cccnc2)c1
5. O=C(CNC1CCCCC1)Nc1ccc(Cl)cc1
6. COc1ccccc1C(=O)Nc1nsc(-c2ccccc2)n1
7. N#Cc1ccc(OCC(=O)Nc2ccc(S(=O)(=O)N3CCOCC3)cc2)cc1

49.7
34.3
1.3
31.7
38
8.8
5.5

Please give solubility kinetic, item by item, for the list that follows.
1. CSc1nc(N2CCOCC2)c2sccc2n1
2. CCOc1ccc2[nH]cc(-c3csc(N)n3)c2c1
3. O=C(COC(=O)c1ccc(O)cc1)NC(c1ccccc1)c1ccccc1

38.6
20.5
1.7
